Quick reference: growth of the listed items.
# System: OVCAR-5 ovarian
# Test description: NCI-60 one-dose screen, 48 h (100 = growth as untreated, 0 = no growth, -100 = all killed)
# Stated conditions: 10 µM unless noted
Compounds without any hit were thinned out: in the full panel of roughly 83,000, 20% have a hit. The source made the active and inactive calls. Rule for the calls: active = growth percent below 10; inactive = the rest.

Cn1cc(-c2nnc(N)nc2-c2cn(C)c3ccc(F)cc23)c2cc(F)ccc21    103% (inactive)

// switching to the query compound
Consider the compound shown here: COc1ccc(/C(C)=C(\c2ccc(Cl)cc2)c2ccc(OCCN)cc2)cc1 What is its recorded growth?
83.8% (inactive)

###

# Test system: HOP-92 NSCLC
# Test description: NCI-60 one-dose screen, 48 h (100 = growth as untreated, 0 = no growth, -100 = all killed)
# Stated conditions: 10 µM unless noted
Compounds without any hit were thinned out: in the full panel of roughly 83,000, 20% have a hit.
Recorded metric: growth (%)
The reply should be a number in %, with the unit left off.

CCN1C(=O)N(CC)C2SC(N/N=C/c3cccs3)=NC21 (stereo not given)    -7.41

Read the next record carefully.
Look up growth with HOP-92 NSCLC for this molecule: CCN1C(=O)N(CC)C2SC(N/N=C/c3ccc(F)cc3)=NC21 (stereo not given)
-0.0922

###

# System: HOP-92 NSCLC
# Test description: NCI-60 one-dose screen, 48 h (100 = growth as untreated, 0 = no growth, -100 = all killed)
# Stated conditions: 10 µM unless noted
The panel holds about 83,000 compounds, 20% with a hit somewhere; the sample as a whole holds those more often.
This listing pairs compounds with measured growth.
Just the number please, in %, no unit attached.

Cn1nc(Nc2ccccc2)c(C(=O)NN)c1N    111

# next compound below
Need growth, item NC(=O)N1N=C(c2cc3ccccc3oc2=O)CC1c1cn(-c2ccccc2)nc1-c1ccc(Cl)cc1 (stereo unspecified)
42.6

###

# growth per record follows
# Tested on: HT29 colon
# Test description: NCI-60 one-dose screen, 48 h (100 = growth as untreated, 0 = no growth, -100 = all killed)
# Stated conditions: 10 µM unless noted
Compounds without any hit were thinned out: in the full panel of roughly 83,000, 20% have a hit. Active and inactive are the calls of the source. Rule for the calls: active = growth percent below 10; inactive = the rest.

Give recorded growth with HT29 colon for the following compound: COc1ccc(CCN2C(=O)CSC2=S)cc1OC
109% (inactive)

###

This section presents compounds with their documented growth values.
# Tested on: MDA-MB-231 breast
# Test description: NCI-60 one-dose screen, 48 h (100 = growth as untreated, 0 = no growth, -100 = all killed)
# Stated conditions: 10 µM unless noted
The panel holds about 83,000 compounds, 20% with a hit somewhere; the sample as a whole holds those more often.
Provide the reading as a plain figure in %.

COc1ccc(/C=C/C(=O)c2nnn(-c3ccc(C(=O)O)cc3)c2C)cc1OC    96.7
C/C=C/C=C1\C[C@H]2CO[C@H](O2)C1=O    105
NS(=O)(=O)c1ccc(-n2cc(CC=O)nn2)cc1    103

Could you tell me which growth is on file for NC(N)=NS(=O)(=O)c1ccc(N=NC2C(=O)NN(c3ccccc3)C2=O)cc1 (stereo not drawn) ?
94.9

Reported growth for C#C[C@]1(O)CC[C@H]2[C@@H]3CC=C4c5sc(Nc6ccncc6)nc5CC[C@]4(C)[C@H]3CC[C@@]21C : what is it?
21.7

Look up growth: CCc1ccc(NC(=O)N[C@@H](Cc2cccc(F)c2)C(=O)N[C@@H]2C(=O)N3CCC[C@H]3C(=O)N3CCCC[C@H]3C(=O)N[C@@H](C)C(=O)N3C[C@H](C)C[C@H]3C(=O)O[C@H]2C)c(F)c1
26.8

Entry under review: O=C(O)CNS(=O)(=O)c1ccc(Oc2ccc(S(=O)(=O)NCC(=O)O)cc2)cc1 . Reported growth?
102

I have this compound here, Cc1cn(-c2cc(NC(=O)c3cncc(C#Cc4cnc5ccc(OCCCS(C)(=O)=O)nn45)c3)cc(C(F)(F)F)c2)cn1 , and I need its recorded growth.
14.4

###

# System: RPMI-8226 leukemia
# Test description: NCI-60 one-dose screen, 48 h
# Stated conditions: 10 µM unless noted
The panel holds about 83,000 compounds, 20% with a hit somewhere; the sample as a whole holds those more often. Active and inactive are the calls of the source. Rule for the calls: active = growth percent below 10; inactive = the rest.
Outcome (select one): active, inactive

I would be grateful if you could indicate the recorded call for CCN1C(=O)N(CC)C2SC(N/N=C/C=C/c3ccccc3OC)=NC21 (centres undefined) .
inactive

Status in this test for CCNCCCn1c2c(c3cc(OC)c(OC)cc3c1=O)C(=O)c1cc(OC)cnc1-2 ?
active

For CN1CCN(c2ccc(NC(=O)Nc3ccc4c(ccn4-c4cccc(C(N)=O)n4)c3)cc2C(F)(F)F)CC1 , which call appears in the assay record?
active

Which outcome was entered for the compound CSc1ccc(/C(=N/N=C(N)N)c2ccccc2)cc1 in this test?
inactive

Look up the recorded call for Oc1ccc(CSc2nnc(-c3ccncc3)o2)c2cccnc12 in this test.
active

###

# Tested on: DU-145 prostate
# Test description: NCI-60 one-dose screen, 48 h (100 = growth as untreated, 0 = no growth, -100 = all killed)
# Stated conditions: 10 µM unless noted
Compounds without any hit were thinned out: in the full panel of roughly 83,000, 20% have a hit.
Kind request: treat 30% as inclusive, so growth at 30% or higher is Yes, anything lower is No.

Example cases with answers are listed next.
Cc1ccc(-c2csc(N/N=C/c3nc4ccccc4n3C3CC3)n2)cc1    Yes
CCNC(=O)Oc1ccc(/C(=C(/C)c2ccc(Cl)cc2)c2ccc(OCCN(C)C)cc2)cc1    Yes
O=C(NCCCNc1cc(-c2cn(-c3ccccc3)nc2-c2cccc(O)c2)ccn1)Nc1ccc(F)cc1    Yes
NCCN1CCN(c2nc(-c3ccccc3)nc3nc(-c4ccccc4)oc23)CC1    No
CC1=CC(=O)CC(C)(C)[C@@]1(O)/C=C/C(C)=C\C(=O)O    No
COc1ccc(-c2ccnc3c(C#N)c(Nc4ccccc4)nn23)cc1OC    Yes
Oc1ccc(CSc2nnc(-c3ccc(Cl)cc3)o2)c2cccnc12    Yes
O=C1Nc2cc(OC(F)(F)F)ccc2Oc2ccc(-c3ccnc(N4CC[C@H](O)C4)c3)cc21    No

Alright, here's another compound for you.
Can COc1ccc([C@H]2[C@H](O)C(=O)N2c2cc(OC)c(OC)c(OC)c2)cc1Cl be said to have growth at or above 30%?
No

###

# Tested on: U251 CNS
# Test description: NCI-60 one-dose screen, 48 h (100 = growth as untreated, 0 = no growth, -100 = all killed)
# Stated conditions: 10 µM unless noted
The panel holds about 83,000 compounds, 20% with a hit somewhere; the sample as a whole holds those more often.
Recorded metric: growth (%)
Report as a plain number; the unit % is understood.

Known growth results, listed for orientation:
O=C1[C@H]2Cc3c([nH]c4ccccc34)[C@@H](c3c(Cl)cccc3Cl)N2C(=O)CN1C1CCN(Cc2ccccc2)CC1    50.1
O=C1NC(=O)/C(=C/c2ccc(OCc3cc4ccccc4nc3Cl)cc2)S1    101
C=CCn1c(SCC(=O)Nc2cccc(C(=O)/C=C/c3ccccc3)c2)nc2ccccc2c1=O    46.7

Recorded growth for C=CCn1c(SCC(=O)Nc2cccc(C(=O)/C=C/c3ccc(Br)cc3)c2)nc2ccccc2c1=O , please?
74.6

Please give the measured growth for this molecule: COc1ccc(OC)c(NC2=C(Cl)C(=O)C(C)=C(C)C2=O)c1
94.1

I have this molecule here, CC1CCc2c(sc3nc(SCC(=O)N/N=C/c4cccc(O)c4O)n(-c4ccccc4)c(=O)c23)C1 (centres undefined) , and I need its recorded growth.
90.9

Which measured growth value corresponds to Cn1cc(-c2nn3cc(-c4ccncc4)nc3s2)c2cc(Cl)ccc21 ?
56.6

// lookup growth for Cc1ccc(Cc2cnc(NC(=O)/C(C#N)=C/c3ccc(-c4ccc(Cl)cc4)o3)s2)cc1
102

Reported growth for C=CCn1c(SCC(=O)Nc2cccc(C(=O)/C=C/c3cccc([N+](=O)[O-])c3)c2)nc2ccccc2c1=O : what is it?
87.9

###

# Test system: M14 melanoma
# Test description: NCI-60 one-dose screen, 48 h (100 = growth as untreated, 0 = no growth, -100 = all killed)
# Stated conditions: 10 µM unless noted
About 83,000 compounds went through this panel and 20% of them were active in at least one assay; those are over-represented in the sample as a whole.
Threshold-based label: growth under 70% gives criterion met, growth not under 70% gives criterion not met.

Item O=C(C[n+]1ccnc2ccccc21)c1ccc(O)c(O)c1 : growth beneath 70%, strictly?
criterion met

Please determine if C#C[C@]1(O)CC[C@H]2[C@@H]3CC=C4c5sc(Nc6ccncc6)nc5CC[C@]4(C)[C@H]3CC[C@@]21C is below 70% in terms of growth.
criterion met
